# Test system: Candida albicans SNY425 biofilm
# methodSummary: biofilm OD600 with compound plus antifungal (OD600 (absorbance)); higher = more biofilm remaining
# conditionsUsed: assay detail: disruption of 24-h mature biofilm (compound + antifungal for a second 24 h)
endpoint: biofilm OD600
I'd appreciate a reply containing only the number, no unit.

Please review the entries below; each comes with its answer.
Report biofilm OD600 for CO[C@@H]1[C@H](OC(=O)/C=C/C=C/C=C/C=C/C(=O)O)CC[C@]2(CO2)[C@H]1[C@@]1(C)O[C@@H]1CC=C(C)C [Fumagillin] + C[C@@H]1[C@H](O)[C@@H](C)/C=C/C=C/C=C/C=C/C=C/C=C/C=C/[C@H](O[C@@H]2O[C@H](C)[C@@H](O)[C@H](N)[C@@H]2O)C[C@@H]2O[C@](O)(C[C@@H](O)C[C@@H](O)[C@H](O)CC[C@@H](O)C[C@@H](O)CC(=O)O[C@H]1C)C[C@H](O)[C@H]2C(=O)O [amphotericin B] (first compound 12.5 µM) tested on Candida albicans SNY425 biofilm.
0.264

Checklist item: biofilm OD600 tested on Candida albicans SNY425 biofilm, entry CC(C)CCNC(=O)[C@H](CC(C)C)NC(=O)[C@H]1O[C@@H]1C(=O)O + CC[C@H](C)C[C@H](C)CCCCCCCCC(=O)N[C@H]1C[C@@H](O)[C@@H](NCCN)NC(=O)[C@@H]2[C@@H](O)CCN2C(=O)[C@H]([C@H](O)CCN)NC(=O)[C@H]([C@H](O)[C@@H](O)c2ccc(O)cc2)NC(=O)[C@@H]2C[C@@H](O)CN2C(=O)[C@H]([C@@H](C)O)NC1=O [caspofungin] (first compound 12.5 µM) , value?
0.268

Next:
What is its biofilm OD600 for Candida albicans SNY425 biofilm? Entry: C[C@H](CS)C(=O)N1CCC[C@H]1C(=O)O [Captopril] + OC(Cn1cncn1)(Cn1cncn1)c1ccc(F)cc1F [fluconazole] (first compound 12.5 µM)
0.281

Request body: readout biofilm OD600, system Candida albicans SNY425 biofilm, query CC(C)C[C@H](NC(=O)N[C@H](C(=O)N[C@@H](CCC(N)=O)C(=O)N[C@@H](C)C=O)[C@@H]1CCNC(=N)N1)C(=O)O [Elastatinal] + C[C@@H]1[C@H](O)[C@@H](C)/C=C/C=C/C=C/C=C/C=C/C=C/C=C/[C@H](O[C@@H]2O[C@H](C)[C@@H](O)[C@H](N)[C@@H]2O)C[C@@H]2O[C@](O)(C[C@@H](O)C[C@@H](O)[C@H](O)CC[C@@H](O)C[C@@H](O)CC(=O)O[C@H]1C)C[C@H](O)[C@H]2C(=O)O [amphotericin B] (first compound 12.5 µM) . Return the value.
0.273

Provide the documented biofilm OD600 with Candida albicans SNY425 biofilm as the system for NCC1CCC(C(=O)N[C@@H](Cc2ccccc2)C(=O)Nc2ccc(CC(=O)O)cc2)CC1 (stereo not given in full) + C[C@@H]1[C@H](O)[C@@H](C)/C=C/C=C/C=C/C=C/C=C/C=C/C=C/[C@H](O[C@@H]2O[C@H](C)[C@@H](O)[C@H](N)[C@@H]2O)C[C@@H]2O[C@](O)(C[C@@H](O)C[C@@H](O)[C@H](O)CC[C@@H](O)C[C@@H](O)CC(=O)O[C@H]1C)C[C@H](O)[C@H]2C(=O)O [amphotericin B] (first compound 12.5 µM)
0.271
